# credit: paper PMC12555108

Target: BCRP (Homo sapiens, UniProt Q9UNQ0)
Sequence (Q9UNQ0 1-655): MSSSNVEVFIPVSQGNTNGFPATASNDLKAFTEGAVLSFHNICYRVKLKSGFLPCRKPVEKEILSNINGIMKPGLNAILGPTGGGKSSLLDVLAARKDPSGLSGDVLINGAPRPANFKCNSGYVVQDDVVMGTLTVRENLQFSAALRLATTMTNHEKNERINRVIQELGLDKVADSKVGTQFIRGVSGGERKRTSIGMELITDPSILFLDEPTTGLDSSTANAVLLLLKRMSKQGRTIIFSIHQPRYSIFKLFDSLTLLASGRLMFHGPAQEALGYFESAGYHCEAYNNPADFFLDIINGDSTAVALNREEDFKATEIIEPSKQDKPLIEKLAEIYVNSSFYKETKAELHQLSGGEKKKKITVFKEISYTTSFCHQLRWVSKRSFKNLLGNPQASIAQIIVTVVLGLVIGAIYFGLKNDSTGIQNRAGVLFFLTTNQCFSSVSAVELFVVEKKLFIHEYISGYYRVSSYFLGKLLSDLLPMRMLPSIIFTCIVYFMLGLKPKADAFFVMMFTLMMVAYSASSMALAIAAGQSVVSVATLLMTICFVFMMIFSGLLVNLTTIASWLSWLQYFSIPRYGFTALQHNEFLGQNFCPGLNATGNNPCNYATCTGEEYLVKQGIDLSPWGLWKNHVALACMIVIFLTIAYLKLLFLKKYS
Assay: bidirectional transport assay across hCMEC/D3 cell monolayer with or without Ko143
Conditions: human, pH 7.4
RECORDED_METRIC: Papp B→A at 2 h, […] µM

{"COMPOUND": "NC(=O)N1c2ccccc2CC(=O)c2ccccc21 [OXC, oxcarbazepine]", "RECORDED_METRIC": "Papp B→A at 2 h, […] µM", "MEASURED_RESULT": "39.4 ×10⁻⁶ cm/s"}
